Give measured Plasma BUN for each item. Keep answers brief.
# experiment_description: Plasma BUN, assessment of renal injury (Example 14)
# Assay type: in vivo, mice
# conditions_used: Table 3; 100 nmol iv (approximately 16 mg/kg), 24 hours post-peptide administration
Give bare numbers, in mg/dL.

Sample answers from the record:
residues: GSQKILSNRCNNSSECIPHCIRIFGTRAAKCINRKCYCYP [SEQ ID NO: 20]
value_unit: mg/dL
Plasma BUN: 25

residues: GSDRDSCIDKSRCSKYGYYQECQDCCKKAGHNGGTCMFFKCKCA [SEQ ID NO: 21]
value_unit: mg/dL
Plasma BUN: 20

residues: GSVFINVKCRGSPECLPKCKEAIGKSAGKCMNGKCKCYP [SEQ ID NO: 36]
value_unit: mg/dL
Plasma BUN: 21.5

Fill in Plasma BUN for each of the 2 sequences listed.
1. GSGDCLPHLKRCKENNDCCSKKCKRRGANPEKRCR [SEQ ID NO: 18]
2. GSSFGLCRLRRGFCARGRCRFPSIPIGRCSRFVQCCRRVW [SEQ ID NO: 45]

Reply:
19.5
21.5

###

# experiment_description: Whole body autoradiography of 14C labeled peptides, renal cortex and blood
# Assay type: in vivo, mice
# conditions_used: renal cortex, 100 nmol 14C labeled peptide iv, 3 hours
# Text: This example describes radiolabeling of peptides of this disclosure. Several knotted peptides were radiolabeled by reductive methylation with ^14C formaldehyde and sodium cyanoborohydride with standard techniques. […] This example illustrates accumulation of peptides of the present disclosure in kidneys measured by whole body autoradiography. […] Radiolabeled peptide signal was quantified in the renal cortex and blood from the ventricle in 2-3 sections per mouse in 2 mice total. […]
Give measured Pixel density-Bkg/area (3 hours) for each item. Keep answers brief.
Numbers only.

Fill in Pixel density-Bkg/area (3 hours) for each of the 5 sequences listed.
1. GSSCARPRENCNRMNILCCRGECVCPTFGDCFCYGD [SEQ ID NO: 54]
2. GSQVQTNVRCQGGSCASVCRREIGVAAGRCINGRCVCYRN [SEQ ID NO: 58]
3. GSQFTNVSCTTSRECWSVCQRLHNTSRGRCMNRRCRCYS [SEQ ID NO: 5]
4. GSGDCLPHLRRCRENNDCCSRRCRRRGANPERRCR [SEQ ID NO: 59]
5. GSVRIPVSCRHSGQCLRPCRDAGMRFGRCMNGRCDCTPR [SEQ ID NO: 57]

Reply:
1.48E+06
7.73E+06
1.40E+07
3.47E+07
4.63E+06

Fill in Pixel density-Bkg/area (3 hours) for each of the 4 sequences listed.
1. GSSERDCIRHLQRCRENRDCCSRRCSRRGTNPERRCR [SEQ ID NO: 56]
2. GSSCEPGTTFRDRCNTCRCGSDGRSAACTLRACPQ [SEQ ID NO: 46]
3. GSGVPINVRCRGSRDCLDPCRRAGMRFGRCINSRCHCTP [SEQ ID NO: 55]
4. GSGVPINVRSRGSRDSLDPSRRAGMRFGRSINSRSHSTP [SEQ ID NO: 119, reference compound]

Reply:
["1.48E+07", "8.83E+05", "2.73E+07", "1.71E+06"]

###

# Tested on: pepsin
# experiment_description: Peptide stability in the presence of pepsin, RP-HPLC
# Type: in vitro ADME
# conditions_used: 20 μg pepsin, pH 1.05, 30 minutes at 37.5° C.
readout_label: Pepsin

residues: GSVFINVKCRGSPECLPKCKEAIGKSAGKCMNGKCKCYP [SEQ ID NO: 36]
assay_result: Resistant

residues: GSECLEIFKACNPSNDQCCKSSKLVCSRKTRWCKYQIG [SEQ ID NO: 38]
assay_result: Resistant

residues: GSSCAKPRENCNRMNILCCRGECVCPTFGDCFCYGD [SEQ ID NO: 10]
assay_result: Resistant

###

Give measured Signal ratio Kidney:Blood (24 hours) for each item. Keep answers brief.
# experiment_description: Whole body autoradiography of 14C labeled peptides, renal cortex and blood
# Type: in vivo, mice
# conditions_used: renal cortex vs blood from the ventricle, 100 nmol iv, 24 hours
# Source text: This example describes radiolabeling of peptides of this disclosure. Several knotted peptides were radiolabeled by reductive methylation with ^14C formaldehyde and sodium cyanoborohydride with standard techniques. […] This example illustrates accumulation of peptides of the present disclosure in kidneys measured by whole body autoradiography. […] Radiolabeled peptide signal was quantified in the renal cortex and blood from the ventricle in 2-3 sections per mouse in 2 mice total. […]
One number for each entry.

Sample answers from the record:
residues: GSSERDCIRHLQRCRENRDCCSRRCSRRGTNPERRCR [SEQ ID NO: 56]
readout_label: Signal ratio Kidney:Blood (24 hours)
assay_result: 7.5
//
residues: GSGDCLPHLRRCRENNDCCSRRCRRRGANPERRCR [SEQ ID NO: 59]
readout_label: Signal ratio Kidney:Blood (24 hours)
assay_result: 6.1
//
residues: GSGVPINVRSRGSRDSLDPSRRAGMRFGRSINSRSHSTP [SEQ ID NO: 119, reference compound]
readout_label: Signal ratio Kidney:Blood (24 hours)
assay_result: 6.9

Fill in Signal ratio Kidney:Blood (24 hours) for each of the 2 sequences listed.
1. GSVRIPVSCRHSGQCLRPCRDAGMRFGRCMNGRCDCTPR [SEQ ID NO: 57]
2. GSQFTNVSCTTSRECWSVCQRLHNTSRGRCMNRRCRCYS [SEQ ID NO: 5]

Reply:
1: 6.4; 2: 6.4

###

# experiment_description: Whole body autoradiography of 14C labeled peptides, renal cortex and blood
# Assay type: in vivo, mice
# conditions_used: renal cortex, 100 nmol 14C labeled peptide iv, 24 hours
Give measured Pixel density-Bkg/area (24 hours) for each item. Keep answers brief.
Answers are plain numbers.

residues: GSVRIPVSCRHSGQCLRPCRDAGMRFGRCMNGRCDCTPR [SEQ ID NO: 57]
Pixel density-Bkg/area (24 hours): 1.03E+06

residues: GSQVQTNVRCQGGSCASVCRREIGVAAGRCINGRCVCYRN [SEQ ID NO: 58]
Pixel density-Bkg/area (24 hours): 1.30E+06

Turning now to a further record.
Pixel density-Bkg/area (24 hours) measured on GSGVPINVRCRGSRDCLDPCRRAGMRFGRCINSRCHCTP [SEQ ID NO: 55] = 2.25E+06
